- Test system: Serine/threonine-protein kinase PAK 5 (Homo sapiens)
- Study conditions: at 1 µM
- Description: GSK_PKIS: PAK5 mean inhibition at 1 uM [Nanosyn]
Result type: inhibition (%)
Entry rule: numbers only, all in %.

Exercise: Please look up its inhibition: COC(=O)Nc1nc2ccc(Oc3ccc(NC(=O)Nc4cc(C(F)(F)F)ccc4F)cc3)cc2s1
Key: -1.37

Exercise: Please look up its inhibition: O=C(O[C@H]1CN[C@H](C#Cc2cc3ncnc(Nc4ccc(OCc5cccc(F)c5)c(Cl)c4)c3s2)C1)N1CCOCC1
Key: 0.44

Exercise: Please look up its inhibition: CS(=O)(=O)CCNCc1ccc(-c2ccc3ncnc(Nc4ccc(OCc5ccccc5)cc4)c3c2)o1
Key: 2.57

Exercise: Please look up its inhibition: O=C(O[C@H]1CN[C@H](C#Cc2cc3ncnc(Nc4ccc5c(ccn5Cc5cc(F)ccc5F)c4)c3s2)C1)N1CCOCC1
Key: -5.06

====

Can you tell me inhibition for the items I'm about to list?
- System: Mast/stem cell growth factor receptor Kit (Homo sapiens), P10721 [D816V]
- Sequence (P10721 whole entry D816V): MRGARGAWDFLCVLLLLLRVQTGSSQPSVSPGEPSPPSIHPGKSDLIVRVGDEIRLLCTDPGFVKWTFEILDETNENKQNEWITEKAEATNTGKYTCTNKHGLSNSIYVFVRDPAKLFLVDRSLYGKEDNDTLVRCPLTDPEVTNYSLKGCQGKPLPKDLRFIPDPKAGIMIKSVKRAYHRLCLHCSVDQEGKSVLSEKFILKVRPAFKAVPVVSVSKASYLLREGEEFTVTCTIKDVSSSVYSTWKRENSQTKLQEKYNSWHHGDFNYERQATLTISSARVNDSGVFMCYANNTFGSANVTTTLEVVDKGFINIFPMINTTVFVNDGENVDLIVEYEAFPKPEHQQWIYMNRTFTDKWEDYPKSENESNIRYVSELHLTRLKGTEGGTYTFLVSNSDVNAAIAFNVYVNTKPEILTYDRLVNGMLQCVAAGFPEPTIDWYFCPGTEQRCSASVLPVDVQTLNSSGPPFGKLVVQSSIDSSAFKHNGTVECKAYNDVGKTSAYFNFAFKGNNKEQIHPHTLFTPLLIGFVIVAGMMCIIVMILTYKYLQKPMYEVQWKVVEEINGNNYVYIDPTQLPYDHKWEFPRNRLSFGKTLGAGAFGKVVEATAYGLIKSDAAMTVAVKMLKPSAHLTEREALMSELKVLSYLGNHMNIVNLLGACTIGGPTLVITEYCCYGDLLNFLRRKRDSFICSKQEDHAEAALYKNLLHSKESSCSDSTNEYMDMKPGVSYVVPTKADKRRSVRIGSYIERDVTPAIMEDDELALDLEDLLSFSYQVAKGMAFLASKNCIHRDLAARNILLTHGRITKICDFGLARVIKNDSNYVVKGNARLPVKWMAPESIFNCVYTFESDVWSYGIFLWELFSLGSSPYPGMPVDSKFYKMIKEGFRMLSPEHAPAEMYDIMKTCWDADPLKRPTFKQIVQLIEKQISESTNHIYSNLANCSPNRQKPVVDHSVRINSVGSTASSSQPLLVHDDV
- Study conditions: at 1 µM
Entry rule: numbers only, all in %.

Exercise: Please look up its inhibition: COc1c(C(N)=O)cc(-c2ccc(Cl)cc2)cc1-c1ccc(S(N)(=O)=O)cc1
Key: 3.88

Exercise: Please look up its inhibition: COc1ccc(-c2nn3ncccc3c2-c2ccnc(Nc3ccc(F)c(F)c3)n2)cc1
Key: 5.39

Exercise: Please look up its inhibition: CCN1CCC(C(=O)Nc2n[nH]c3nnc(-c4cccc(F)c4F)cc23)CC1
Key: -1.53

Exercise: Please look up its inhibition: NS(=O)(=O)c1ccc(N/N=C2\C(=O)Nc3cccc(CCc4ccncc4)c32)cc1
Key: 5.18

Exercise: Please look up its inhibition: O=C(O[C@H]1CN[C@H](C#Cc2cc3ncnc(Nc4ccc5c(cnn5Cc5ccccc5)c4)c3s2)C1)N1CCOCC1
Key: -0.62

Exercise: Please look up its inhibition: CC(C)c1ccc(-c2cc(-c3c[nH]nc3-c3ccccn3)ccn2)cc1
Key: 3.83

Exercise: Please look up its inhibition: c1cnn2ncc(-c3ccnc(NCCCN4CCOCC4)n3)c2c1
Key: 4.06

Exercise: Please look up its inhibition: COc1cc(N2CCN(C(C)C)CC2)ccc1Nc1nc(Nc2cccc(F)c2C(=O)O)c2cc[nH]c2n1
Key: 3.22

Exercise: Please look up its inhibition: COc1ccc2ncn(-c3cc(O[C@H](C)c4ccccc4C(F)(F)F)c(C(N)=O)s3)c2c1
Key: 2.71

Exercise: Please look up its inhibition: CCOc1ccc2c(-c3ccnc(Nc4cc(OC)cc(C(F)(F)F)c4)n3)cnn2n1
Key: 2.86

Exercise: Please look up its inhibition: CNC(=O)c1cncc(/C=C/c2ccccc2C)c1
Key: 3.24

====

Can you tell me inhibition for the items I'm about to list?
- Test system: Mitogen-activated protein kinase 14 (Homo sapiens) (UniProt Q16539);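 further: values are mean percent inhibition of p38α kinase from the GSK PKIS published kinase inhibitor set screen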
- Sequence (Q16539 whole entry): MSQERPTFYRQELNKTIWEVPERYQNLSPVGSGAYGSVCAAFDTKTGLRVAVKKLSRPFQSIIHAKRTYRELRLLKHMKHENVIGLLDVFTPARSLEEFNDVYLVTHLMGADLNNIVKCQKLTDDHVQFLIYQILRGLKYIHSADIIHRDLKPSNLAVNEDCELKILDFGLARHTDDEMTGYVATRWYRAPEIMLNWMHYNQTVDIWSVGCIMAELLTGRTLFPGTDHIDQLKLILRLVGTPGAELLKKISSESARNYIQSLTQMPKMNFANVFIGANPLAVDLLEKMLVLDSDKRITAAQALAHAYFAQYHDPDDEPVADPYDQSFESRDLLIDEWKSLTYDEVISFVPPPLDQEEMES
- Study conditions: at 0.1 µM
Put your answer as a value accompanied by its unit after it.

Exercise: Given the entry COC(=O)Nc1nc2cc(Oc3ccc(NC(=O)Nc4ccccc4)cc3)ccc2[nH]1 , what inhibition was observed with Mitogen-activated protein kinase 14 (Homo sapiens) (UniProt Q16539)?
Key: 1.53%

Exercise: Given the entry COc1ccc2ncn(-c3cc(O[C@H](C)c4ccccc4C(F)(F)F)c(C(N)=O)s3)c2c1 , what inhibition was observed with Mitogen-activated protein kinase 14 (Homo sapiens) (UniProt Q16539)?
Key: -5.71%

Exercise: Given the entry NS(=O)(=O)c1cccc(N/C=C2\C(=O)Nc3ccccc32)c1 , what inhibition was observed with Mitogen-activated protein kinase 14 (Homo sapiens) (UniProt Q16539)?
Key: 7.96%

Exercise: Given the entry CN1CCC(n2cnc(-c3ccc(F)cc3)c2-c2ccnc(NCCO)n2)CC1 , what inhibition was observed with Mitogen-activated protein kinase 14 (Homo sapiens) (UniProt Q16539)?
Key: 66.3%

Exercise: Given the entry c1cnn2ncc(-c3ccnc(NCCCN4CCOCC4)n3)c2c1 , what inhibition was observed with Mitogen-activated protein kinase 14 (Homo sapiens) (UniProt Q16539)?
Key: 1.91%

Exercise: Given the entry Cc1ccc(-c2cc3c(NC(=O)C4CC4)ncnc3o2)cc1 , what inhibition was observed with Mitogen-activated protein kinase 14 (Homo sapiens) (UniProt Q16539)?
Key: 3.56%

Exercise: Given the entry Fc1ccc(Nc2nccc(-c3c(-c4ccc(C(F)(F)F)cc4)nn4ncccc34)n2)cc1F , what inhibition was observed with Mitogen-activated protein kinase 14 (Homo sapiens) (UniProt Q16539)?
Key: 1.53%

Exercise: Given the entry CCS(=O)(=O)c1ccc(OC)c(Nc2ncc(-c3cccc(C(C)=O)c3)o2)c1 , what inhibition was observed with Mitogen-activated protein kinase 14 (Homo sapiens) (UniProt Q16539)?
Key: 2.16%

Exercise: Given the entry CN(C)CCNC(=O)Nc1ccc(N(C)c2ccnc(Nc3ccc(CS(C)(=O)=O)cc3)n2)cc1 , what inhibition was observed with Mitogen-activated protein kinase 14 (Homo sapiens) (UniProt Q16539)?
Key: 2.66%

Exercise: Given the entry COc1ccc(-c2nn3ncccc3c2-c2ccnc(Nc3ccc(F)c(F)c3)n2)cc1 , what inhibition was observed with Mitogen-activated protein kinase 14 (Homo sapiens) (UniProt Q16539)?
Key: 33%

Exercise: Given the entry O=C(Nc1n[nH]c2nnc(-c3cccnc3)cc12)C1CC1 , what inhibition was observed with Mitogen-activated protein kinase 14 (Homo sapiens) (UniProt Q16539)?
Key: -0.2%

Exercise: Given the entry COc1cc(Nc2ncc(-c3ccccc3)o2)cc(OC)c1 , what inhibition was observed with Mitogen-activated protein kinase 14 (Homo sapiens) (UniProt Q16539)?
Key: 6.3%

Exercise: Given the entry O=C(O[C@H]1CN[C@H](C#Cc2cc3ncnc(Nc4ccc5c(ccn5Cc5cc(F)ccc5F)c4)c3s2)C1)N1CCOCC1 , what inhibition was observed with Mitogen-activated protein kinase 14 (Homo sapiens) (UniProt Q16539)?
Key: 5.28%

Exercise: Given the entry CCn1c(-c2nonc2N)nc2cncc(C(=O)NCCNC)c21 , what inhibition was observed with Mitogen-activated protein kinase 14 (Homo sapiens) (UniProt Q16539)?
Key: 7.83%

Exercise: Given the entry CCOc1ccc2c(-c3ccnc(Nc4cc(OC)cc(C(F)(F)F)c4)n3)cnn2n1 , what inhibition was observed with Mitogen-activated protein kinase 14 (Homo sapiens) (UniProt Q16539)?
Key: 8.65%

Exercise: Given the entry CS(=O)(=O)Nc1ccc(-c2ccc3c(NC(=O)C4CC4)n[nH]c3c2)cc1 , what inhibition was observed with Mitogen-activated protein kinase 14 (Homo sapiens) (UniProt Q16539)?
Key: 2.35%

Exercise: Given the entry COc1cc(N2CCN(C(C)C)CC2)ccc1Nc1nc(Nc2cccc(F)c2C(=O)O)c2cc[nH]c2n1 , what inhibition was observed with Mitogen-activated protein kinase 14 (Homo sapiens) (UniProt Q16539)?
Key: 6.33%

Exercise: Given the entry CCN1CCC(C(=O)Nc2n[nH]c3nnc(-c4cccc(F)c4F)cc23)CC1 , what inhibition was observed with Mitogen-activated protein kinase 14 (Homo sapiens) (UniProt Q16539)?
Key: -0.33%
